testTarget: Ybr033w (UniProt P38073)
Sequence: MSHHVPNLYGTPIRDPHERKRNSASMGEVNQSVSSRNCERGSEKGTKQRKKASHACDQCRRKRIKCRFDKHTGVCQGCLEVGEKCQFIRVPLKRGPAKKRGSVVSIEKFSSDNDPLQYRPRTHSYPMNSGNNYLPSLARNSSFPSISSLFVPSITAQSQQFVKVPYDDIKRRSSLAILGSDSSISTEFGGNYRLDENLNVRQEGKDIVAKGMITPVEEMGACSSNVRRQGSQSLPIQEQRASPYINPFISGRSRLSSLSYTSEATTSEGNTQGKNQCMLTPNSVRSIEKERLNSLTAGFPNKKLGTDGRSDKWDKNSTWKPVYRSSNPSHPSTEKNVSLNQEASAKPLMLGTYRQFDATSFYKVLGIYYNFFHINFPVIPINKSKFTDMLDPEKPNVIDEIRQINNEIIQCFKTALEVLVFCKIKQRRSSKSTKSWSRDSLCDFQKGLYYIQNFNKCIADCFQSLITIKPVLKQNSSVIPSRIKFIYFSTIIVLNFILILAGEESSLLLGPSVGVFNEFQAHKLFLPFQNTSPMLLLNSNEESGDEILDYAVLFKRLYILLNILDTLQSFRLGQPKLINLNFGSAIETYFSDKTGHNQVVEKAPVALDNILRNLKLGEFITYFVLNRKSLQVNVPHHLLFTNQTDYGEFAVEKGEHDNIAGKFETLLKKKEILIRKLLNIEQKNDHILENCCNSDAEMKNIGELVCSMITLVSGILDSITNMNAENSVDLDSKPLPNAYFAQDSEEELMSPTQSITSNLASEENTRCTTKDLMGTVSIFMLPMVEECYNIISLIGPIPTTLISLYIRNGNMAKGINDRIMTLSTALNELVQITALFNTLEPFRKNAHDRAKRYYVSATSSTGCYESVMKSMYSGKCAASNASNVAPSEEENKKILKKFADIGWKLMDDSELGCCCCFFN
protocolText: PBM E-score (8-mer binding enrichment) (E-score (-0.5 to 0.5)); higher = stronger / more preferred TF binding
runConditions: protein concentration: 200 nM; construct: GST-full length
Whole data set: some 33,000 sequences, median “E-score (-0.5 to 0.5)” near -0.012, cut for the highest 2% near 0.29. For the sample, the highest values were picked, then their nearest neighbours and some sequences at random.
// label = Met if PBM E-score is not less than 0.09, otherwise Not met

Challenge: Test whether the sequence "ATAGCCAT" records PBM E-score of 0.09 or higher.
Response given: Met

Challenge: Could you please find out whether "ATGCGACA" has PBM E-score that meets 0.09 or exceeds it?
Response given: Not met

Challenge: Given the entry "GGCAGCCA" , answer whether its PBM E-score meets or surpasses 0.09.
Response given: Not met

Challenge: Would you say "GCAGTCCA" shows PBM E-score at minimum 0.09?
Response given: Not met

Challenge: Decide: is the reported value of PBM E-score for "ACTGAACC" equal to or greater than 0.09?
Response given: Not met
